Biological target: CYP3A4 (Homo sapiens)
Sequence (P08684 whole entry): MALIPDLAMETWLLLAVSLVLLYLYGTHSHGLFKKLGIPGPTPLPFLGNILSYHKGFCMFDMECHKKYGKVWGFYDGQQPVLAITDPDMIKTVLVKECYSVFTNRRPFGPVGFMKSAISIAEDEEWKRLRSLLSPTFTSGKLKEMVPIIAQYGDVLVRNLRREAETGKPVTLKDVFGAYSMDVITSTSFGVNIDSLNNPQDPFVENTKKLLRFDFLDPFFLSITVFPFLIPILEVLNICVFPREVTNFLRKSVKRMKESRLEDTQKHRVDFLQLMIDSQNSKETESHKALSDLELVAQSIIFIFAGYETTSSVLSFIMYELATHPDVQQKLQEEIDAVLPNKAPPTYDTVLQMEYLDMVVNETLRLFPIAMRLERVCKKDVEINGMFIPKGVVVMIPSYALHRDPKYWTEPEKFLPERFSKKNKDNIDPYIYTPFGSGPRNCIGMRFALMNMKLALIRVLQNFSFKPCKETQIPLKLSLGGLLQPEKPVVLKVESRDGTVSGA
Assay: Inhibition of cytochrome P450 3A4 was determined at 2 uM
Would you please tag the item YES when its inhibition at 2 µM is 60% or above, and NO when it is below?

compound: COc1ccc(CNC(=O)C(c2ccc(C(F)(F)F)cc2)N2CCN(CC(O)COc3c(C)cccc3C)CC2)cc1 (centres undefined)
tested_system: CYP3A4 (Homo sapiens)
discrete_label: YES
--
compound: COc1ccc(CNC(=O)C(c2ccc(F)cc2)N2CCN(CC(O)COc3ccc(OC)cc3)CC2)cc1 (centres undefined)
tested_system: CYP3A4 (Homo sapiens)
discrete_label: YES
--
compound: COc1ccc(OCC(O)CN2CCN(C(C(=O)NCc3ccccc3)c3ccc(C)cc3)CC2)cc1 (centres undefined)
tested_system: CYP3A4 (Homo sapiens)
discrete_label: YES
--
compound: COc1ccc(C(=O)NCC(c2ccccc2)N2CCN(CC(O)COc3ccc(Cl)cc3)CC2)cc1 (centres undefined)
tested_system: CYP3A4 (Homo sapiens)
discrete_label: YES
--
compound: COc1ccc(OCC(O)CN2CCN(C(C(=O)NCc3ccccc3)c3ccc(F)cc3)CC2)cc1 (centres undefined)
tested_system: CYP3A4 (Homo sapiens)
discrete_label: NO
--
compound: COc1ccc(CNC(=O)C(c2ccc(C(F)(F)F)cc2)N2CCN(CC(O)COc3ccc(OC)cc3)CC2)cc1 (centres undefined)
tested_system: CYP3A4 (Homo sapiens)
discrete_label: YES
--
compound: Cc1ccc(C(C(=O)NCc2ccccc2)N2CCN(CC(O)COc3c(C)cccc3C)CC2)cc1 (centres undefined)
tested_system: CYP3A4 (Homo sapiens)
discrete_label: NO
--
compound: COc1ccc(OCC(O)CN2CCN(C(C(=O)NCc3ccccc3)c3ccc(C(F)(F)F)cc3)CC2)cc1 (centres undefined)
tested_system: CYP3A4 (Homo sapiens)
discrete_label: YES

IN: Quick check: does COc1ccc(OCC(O)CN2CCN(C(CNC(=O)c3ccc(F)cc3)c3ccccc3)CC2)cc1 (centres undefined) have inhibition at 2 µM greater than or equal to 60%?
OUT: NO
